B1: TPR 5TU (parent)
chain: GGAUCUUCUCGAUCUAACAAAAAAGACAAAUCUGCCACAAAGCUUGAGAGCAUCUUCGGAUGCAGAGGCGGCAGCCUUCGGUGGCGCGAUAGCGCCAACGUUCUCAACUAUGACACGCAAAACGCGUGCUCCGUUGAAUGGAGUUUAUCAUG

- Variants of: B1
- assay text: polymerase ribozyme fitness, log enrichment relative to wild type (log ratio); higher = more active; in vitro selection for triplet polymerase activity
This sample holds only a part of the variants without activity.
Classification field: enter MET for polymerase ribozyme fitness (log ratio) values not below -2, NOT MET for values below it.

Use the examples below as a reference point.
mutation key	class label
A39G G84A C116U	MET
A16U A19U A26C A37C G74C A89C G94A C108U A113G G136A	NOT MET
C14U A52C U56A A97U A98U	NOT MET
C18U A40C C93A	NOT MET
A12C G94U A150G	NOT MET
A3U C38A C85G C99U G124A	NOT MET

In: Say whether C43U G81C G88A G133C shows polymerase ribozyme fitness (log ratio) of -2 or more.
Out: NOT MET

In: Follow-up entry: A19G A41U A66C C93U C99U A115U G140A G141C
Out: NOT MET
